The following compounds are listed with their measured Potency values.
System: Fathead minnow (Pimephales promelas) acute toxicity, lethality
Experiment: DSSTox (EPAFHM) EPA Fathead Minnow Acute Toxicity

Reference set, count: 8
[
  {
    "COMPOUND": "C=C(C)C(=O)OC(C)C",
    "Potency": "296 µM"
  },
  {
    "COMPOUND": "CCCCCCCCO",
    "Potency": "104 µM"
  },
  {
    "COMPOUND": "Cc1ccc(O)cc1",
    "Potency": "153 µM"
  },
  {
    "COMPOUND": "CCOc1ccc(C=O)cc1",
    "Potency": "187 µM"
  },
  {
    "COMPOUND": "CNC(=O)O/N=C/C(C)(C)SC",
    "Potency": "4.52 µM"
  },
  {
    "COMPOUND": "CCNCC",
    "Potency": "11700 µM"
  },
  {
    "COMPOUND": "CCOP(=S)(OCC)SCSc1ccc(Cl)cc1",
    "Potency": "0.7 µM"
  },
  {
    "COMPOUND": "ClCCCl",
    "Potency": "1370 µM"
  }
]

Challenge: Name the recorded Potency of the compound listed here: ClCCCCCCl
Response given: 179 µM

Challenge: Give the reported Potency for this compound. O=C(O)c1ccccc1
Response given: 3360 µM

Challenge: For the compound O=[N+]([O-])c1ccc(O)cc1 , report Potency.
Response given: 322 µM

Challenge: Determine its reported Potency: Cc1c(Cl)cccc1NC=O
Response given: 275 µM

Challenge: For the compound CN(C)C(=O)Nc1ccc(Cl)c(Cl)c1 , give its reported Potency.
Response given: 60.9 µM

Challenge: Retrieve Potency measured for CCCN(CCC)CCC and print it.
Response given: 355 µM

Challenge: Look up and state reported Potency for CCCCO
Response given: 23300 µM
